# tested_on: T1, human IL-4 (human, UniProt P05112 25-153)
# T1 sequence (looked up): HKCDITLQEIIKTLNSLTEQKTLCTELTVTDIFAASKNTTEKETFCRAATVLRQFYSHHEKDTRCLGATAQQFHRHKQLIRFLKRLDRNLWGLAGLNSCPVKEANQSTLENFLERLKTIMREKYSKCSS
# method: cell-based or functional assay
measurement_kind: CD23 IC50 [pM] (pM)
Unit pM implied. Number only.

Below, 3 binders whose answers are already recorded.
IL4-1358 (antibody, IgG1, V domains shown) VH: QVTLRESGPALVKPTQTLTLTCTFSGFSLSTWGEGVSWIRQPPGKGLEWLAHIYWDDDKRYNPSLKSRLTISKDTSRNQVVLTMTNMDPVDTATYYCARRETVFYWYFDVWGRGTPVTVSS VL: DIQMTQSPSSLSASVGDRVTITCKASQSVDEDGDSYMNWYQQKPGKAPKLLIYAASNLESGVPSRFSGSGSGTDFTLTISSLQPEDFATYYCQQSNEDPPTFGGGTKVEIK ... 16.8
IL4-1347 (antibody, human IgG1, kappa, V domains shown) VH: QVTLRESGPALVKPTQTLTLTCTFSGFSLSTSGMGVSWIRQPPGKGLEWLAHIYWDDDKRYNPSLKSRLTISKDTSRNQVVLTMTNMDPVDTATYYCARRETVFYWYFDVWGRGTPVTVSS VL: DIQMTQSPSSLSASVGDRVTITCKASQSVDEDGDSYMNWYQQKPGKAPKLLIYAASNLESGVPSRFSGSGSGTDFTLTISSLQPEDFATYYCQQSNEDPPTFGGGTKVEIKR ... 65.2
IL4-1352 (antibody, IgG1, V domains shown) VH: QVTLRESGPALVKPTQTLTLTCTFSGFSLSNWGMGVSWIRQPPGKGLEWLAHIYWDDDKRYNPSLKSRLTISKDTSRNQVVLTMTNMDPVDTATYYCARRETVFYWYFDVWGRGTPVTVSS VL: DIQMTQSPSSLSASVGDRVTITCKASQSVDEDGDSYMNWYQQKPGKAPKLLIYAASNLESGVPSRFSGSGSGTDFTLTISSLQPEDFATYYCQQSNEDPPTFGGGTKVEIK ... 19.6

Now let's try a different one.
Given the binder IL4-1350 (antibody, IgG1, V domains shown) VH: QVTLRESGPALVKPTQTLTLTCTFSGFSLSTWGSGVSWIRQPPGKGLEWLAHIYWDDDKRYNPSLKSRLTISKDTSRNQVVLTMTNMDPVDTATYYCARRETVFYWYFDVWGRGTPVTVSS VL: DIQMTQSPSSLSASVGDRVTITCKASQSVDEDGDSYMNWYQQKPGKAPKLLIYAASNLESGVPSRFSGSGSGTDFTLTISSLQPEDFATYYCQQSNEDPPTFGGGTKVEIK , what is its reported CD23 IC50 [pM]?
17.9
